Tested on: HEK293 (non-expressing parental cells)
Assay: FACS cell surface binding
EXPERIMENTAL ENDPOINT: FACS Cell Binding (Fold Above Background)

Ask | Report FACS Cell Binding (Fold Above Background) for H1H6795P: anti-PRLR antibody, human IgG1 Fc; HCVR/LCVR SEQ ID NOs 162/170 (antibody, V domains shown, human IgG1 Fc) VH: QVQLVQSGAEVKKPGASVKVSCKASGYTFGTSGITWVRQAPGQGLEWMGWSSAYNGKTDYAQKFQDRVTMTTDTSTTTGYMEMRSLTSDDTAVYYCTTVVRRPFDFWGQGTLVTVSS VL: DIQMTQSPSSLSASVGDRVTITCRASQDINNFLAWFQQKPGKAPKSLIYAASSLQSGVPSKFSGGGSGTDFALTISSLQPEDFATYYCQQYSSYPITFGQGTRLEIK
Reply | 1 Fold Above Background
